Origin of values: the supplement of paper PMC9732359

Catalogue of protein stability index readings, one per entry.
Experiment: protein stability index of a GFP-peptide fusion (yeast GPS) (PSI 1-4); higher = more stable; sorted into four equal gates, so the index is relative within each strain
Conditions: doa10∆

QUERY SEQUENCE: IPTKESLTRDFEQCCKE [YIL149C/MLP2]
protein stability index: 2.81

QUERY SEQUENCE: ICKNCSAILLSETDKRQ [RPO31]
protein stability index: 2.59

QUERY SEQUENCE: ESMDFLVLADAFDIELS [YCS4]
protein stability index: 2.32

QUERY SEQUENCE: ENSEPPALESSPVTGDN [SNF2]
protein stability index: 3.3

QUERY SEQUENCE: EFYNEMHRPVHFLQFSE [PRP8]
protein stability index: 2.9

QUERY SEQUENCE: KDHDLKIPLPEVHDLIG [POP1]
protein stability index: 3.11

QUERY SEQUENCE: TYDMVGGLTKQIKEIKE [RPT6]
protein stability index: 2.26

QUERY SEQUENCE: KKLDDKPSLVDVHLLES [RPN6]
protein stability index: 1.1

QUERY SEQUENCE: TKSSKEFFNTLRKSRET [RRI2]
protein stability index: 2.63

QUERY SEQUENCE: TESLRVENSVLIEKVDD [YIL149C/MLP2]
protein stability index: 2.48

QUERY SEQUENCE: FQKFLTGHPKGAAGAWM [FAS2]
protein stability index: 1.31

QUERY SEQUENCE: QDGVLLVALSNEPAARL [FAS2]
protein stability index: 1.89

QUERY SEQUENCE: LRSKTSAGRIESNNPSH [SIR4]
protein stability index: 2.56

QUERY SEQUENCE: KVKPIRGFCQRLKGKQG [RPO31]
protein stability index: 2.79

###

Assay: protein stability index of a GFP-peptide fusion (yeast GPS) (PSI 1-4); higher = more stable; sorted into four equal gates, so the index is relative within each strain
Settings: ubr1∆
Catalogue of protein stability index readings, one per entry.

QUERY SEQUENCE: SREVLRYEEFADKVKLG [RPC40]
protein stability index: 3.21
//
QUERY SEQUENCE: EMKTQAAELQEKPLTPL [SNF6]
protein stability index: 2.89
//
QUERY SEQUENCE: DALQDVEESSEKKQKTE [DPB4]
protein stability index: 3.18
//
QUERY SEQUENCE: NSFYYTSLLYLSTLEPS [RPN9]
protein stability index: 1.77
//
QUERY SEQUENCE: SDKESNAYGFIEWCSRC [YJL039C/NUP192]
protein stability index: 2.73
//
QUERY SEQUENCE: TDNVSMYPSPTGVMIGI [PRP8]
protein stability index: 2.3
//
QUERY SEQUENCE: TGSLMGGNSTQNTSNMN [YGR119C/NUP57]
protein stability index: 3.18
//
QUERY SEQUENCE: TISVPQIRDVMERFSVL [RRP6]
protein stability index: 2.68
//
QUERY SEQUENCE: ILKLLNGFMESAIVNED [SOH1]
protein stability index: 3.57
//
QUERY SEQUENCE: MSNIVGIEYNRVTNTTS [RPC40]
protein stability index: 2.88
//
QUERY SEQUENCE: VETKLETKVDELRYQSH [DSN1]
protein stability index: 3.08
//
QUERY SEQUENCE: STMKENKDLSELVIRLE [YIL149C/MLP2]
protein stability index: 3.09
//
QUERY SEQUENCE: VLEDVYRCFAQLELRQL [RRI2]
protein stability index: 2.67
//
QUERY SEQUENCE: GTANNNSNTTNQNSSTG [YJL041W/NSP1]
protein stability index: 3.09
//
QUERY SEQUENCE: VLYQSNATHDEDEFIVQ [SWP82]
protein stability index: 3.15
//
QUERY SEQUENCE: CLEDPEKPFNENRFQDT [POP4]
protein stability index: 3.03
//
QUERY SEQUENCE: ATHLPKDNVEHLVMRAI [RPN9]
protein stability index: 2.9
//
QUERY SEQUENCE: TPNTNSNSTPNANQQFL [SWI1]
protein stability index: 3.1
//
QUERY SEQUENCE: WIKFLLHTLYLRPASAI [SSN8]
protein stability index: 1.15
//
QUERY SEQUENCE: AQRLQISDYQQLESIYF [SWI1]
protein stability index: 2.76
//
QUERY SEQUENCE: MMQDPQMQQMAKQFGMG [SRP54]
protein stability index: 2.75
//
QUERY SEQUENCE: AAMVIMHLMALHIHGSS [COB]
protein stability index: 1.35
//
QUERY SEQUENCE: IKEKFDEFIKTHEDLPK [IRR1]
protein stability index: 3.01
//
QUERY SEQUENCE: RVRNKDIRKFLDGIYVS [RPL9A]
protein stability index: 2.23
//
QUERY SEQUENCE: VVTRSKEAFEEEIKQSA [SMC1]
protein stability index: 3.1
//
QUERY SEQUENCE: CILRFLQLPIEDKFLYG [SWI3]
protein stability index: 1.18
//
QUERY SEQUENCE: KVAKRTKIKPFIKVVNY [RPL27A]
protein stability index: 2.64
//
QUERY SEQUENCE: AISTGAKIDVMLTIARL [RPN7]
protein stability index: 3.38
//
QUERY SEQUENCE: NKGAKAEDVALNEQVKK [NAS6]
protein stability index: 3.1
//
QUERY SEQUENCE: AVHVTVRGPKAEEILER [RPL11A]
protein stability index: 3.05

###

Assay: protein stability index of a GFP-peptide fusion (yeast GPS) (PSI 1-4); higher = more stable; sorted into four equal gates, so the index is relative within each strain
Conditions: ubr1∆
Each record's protein stability index is compared with bucket A (below 2), bucket B (2 to below 3), bucket C (3 or more) to give its class.

QUERY SEQUENCE: VVFAVEKLITSKLLVPQ [PRE10]
ASSIGNED CLASS: bucket B
//
QUERY SEQUENCE: HANAAAVYFADTSGLKI [SIN4]
ASSIGNED CLASS: bucket B
//
QUERY SEQUENCE: AYRTDVIQALGGIETIL [PRP8]
ASSIGNED CLASS: bucket A
//
QUERY SEQUENCE: PTPAIIKPKPLWSGKQI [RPO21]
ASSIGNED CLASS: bucket B
//
QUERY SEQUENCE: KAMSSRAGVSQVLNRYT [RPB2]
ASSIGNED CLASS: bucket C
//
QUERY SEQUENCE: GYVSSLVEPSKVGQFDQ [FAS1]
ASSIGNED CLASS: bucket A
//
QUERY SEQUENCE: QRVRNMRELGLIQSTEF [YOR098C/NUP1]
ASSIGNED CLASS: bucket B
//
QUERY SEQUENCE: LNYTVINFKSREAIRPG [AAR2]
ASSIGNED CLASS: bucket C
//
QUERY SEQUENCE: VRQKIKTLKRMIKESST [POP1]
ASSIGNED CLASS: bucket A
//
QUERY SEQUENCE: IFLAERRILPKPSRTSR [RPS7A]
ASSIGNED CLASS: bucket B

###

Assay: protein stability index of a GFP-peptide fusion (yeast GPS) (PSI 1-4); higher = more stable; sorted into four equal gates, so the index is relative within each strain
Details: doa10∆
Label condition met when protein stability index is at or above 3; anything below gets condition not met.

QUERY SEQUENCE: SQIRLYAKFKRNTMMIQ [RGR1]
ASSIGNED CLASS: condition not met
//
QUERY SEQUENCE: AKSTPNTNPSPLKTQTK [GAL11]
ASSIGNED CLASS: condition not met
//
QUERY SEQUENCE: AGIPIGLKRSQLDEFKN [SWP82]
ASSIGNED CLASS: condition not met
//
QUERY SEQUENCE: GKLEVPGYVDIVKTSSG [RPS19A]
ASSIGNED CLASS: condition met
//
QUERY SEQUENCE: IIKRSNGQSLSPVRSDS [YMR153W/NUP53]
ASSIGNED CLASS: condition not met
//
QUERY SEQUENCE: LQNCCIIDVGTHHTDII [ARP9]
ASSIGNED CLASS: condition not met
//
QUERY SEQUENCE: EGVEYSFLHVDDKLAYI [POP8]
ASSIGNED CLASS: condition not met
//
QUERY SEQUENCE: ASLVPEGNQGSLQEDVS [MED8]
ASSIGNED CLASS: condition met
//
QUERY SEQUENCE: IPVYCFSHPAHQQRMSR [YCG1]
ASSIGNED CLASS: condition not met
//
QUERY SEQUENCE: CGFWQPAWRVWLNFLRG [PRP8]
ASSIGNED CLASS: condition not met
//
QUERY SEQUENCE: LNGGLQFVPELKEFTAK [FAS2]
ASSIGNED CLASS: condition not met
//
QUERY SEQUENCE: LPFQRLVREIAQDFKTD [HHT1]
ASSIGNED CLASS: condition not met
//
QUERY SEQUENCE: GIIEPSLKALASKYNCD [RPL40A]
ASSIGNED CLASS: condition met
//
QUERY SEQUENCE: PLSDLKKRSQAKMNAKT [RPC82]
ASSIGNED CLASS: condition met
//
QUERY SEQUENCE: PDCKIKIAHGTTTLAFR [PRE2]
ASSIGNED CLASS: condition not met
//
QUERY SEQUENCE: TYRYVSVSVLVDRLKIG [RPS25A]
ASSIGNED CLASS: condition not met
//
QUERY SEQUENCE: IGVIQLAHYVVTAKLLG [FAS1]
ASSIGNED CLASS: condition not met
//
QUERY SEQUENCE: SEDHSFRKIKLRVDEVQ [RPS1A]
ASSIGNED CLASS: condition met
//
QUERY SEQUENCE: YNNRKCWPKDSRMRLIR [PRP8]
ASSIGNED CLASS: condition not met
//
QUERY SEQUENCE: ERNAAYQKEYETAERNI [RPL7A]
ASSIGNED CLASS: condition not met
//
QUERY SEQUENCE: TVMFFYHNKHMMCDFGT [DIB1]
ASSIGNED CLASS: condition not met
//
QUERY SEQUENCE: VQISNIPDIGDLPDTEG [PRP8]
ASSIGNED CLASS: condition met
//
QUERY SEQUENCE: LQVADKFFRVKYENKIS [SMC3]
ASSIGNED CLASS: condition not met
//
QUERY SEQUENCE: LLVQKRFKYAPGTIVLY [RPS3]
ASSIGNED CLASS: condition not met
//
QUERY SEQUENCE: RALFRQLKRWYWQFNGV [RMP1]
ASSIGNED CLASS: condition not met
//
QUERY SEQUENCE: QLVPIRLEFDQDRDRFF [SNF5]
ASSIGNED CLASS: condition met
//
QUERY SEQUENCE: EDDEFEDFPIDTWANGE [SEM1]
ASSIGNED CLASS: condition met
//
QUERY SEQUENCE: PQYQYQRRYVIKEKVQF [ITC1]
ASSIGNED CLASS: condition not met
//
QUERY SEQUENCE: VTYSDVGGCKDQIEKLR [RPT1]
ASSIGNED CLASS: condition met
//
QUERY SEQUENCE: TCSCCKKTVAGGAYTVS [RPL43A]
ASSIGNED CLASS: condition not met
//
QUERY SEQUENCE: WELYTDFNEIVQYLSGA [POP3]
ASSIGNED CLASS: condition not met
//
QUERY SEQUENCE: SYWQKSYFKNSVIVKFH [LIN1]
ASSIGNED CLASS: condition not met
//
QUERY SEQUENCE: LRVEHIKHSKCRQEFLE [RPL21A]
ASSIGNED CLASS: condition not met
//
QUERY SEQUENCE: TIKILPENTAMFNPLHE [YMR129W/POM152]
ASSIGNED CLASS: condition not met
//
QUERY SEQUENCE: MNTVPFTSAPIEVTIGI [AAR2]
ASSIGNED CLASS: condition not met
//
QUERY SEQUENCE: QLSNGIVVATEHNPSAH [COR1]
ASSIGNED CLASS: condition not met
//
QUERY SEQUENCE: VKNLSLMSCISVGTDPM [RPB2]
ASSIGNED CLASS: condition not met
//
QUERY SEQUENCE: LEYNVALNDVYLDADVA [YML031W/NDC1]
ASSIGNED CLASS: condition met
//
QUERY SEQUENCE: NENDSQAIITERLVEFS [YIL149C/MLP2]
ASSIGNED CLASS: condition met
//
QUERY SEQUENCE: EDFLHFIVAEYIQQKKV [SRB4]
ASSIGNED CLASS: condition not met
//
QUERY SEQUENCE: FVSYFGKQIKSTIYNWG [YML103C/NUP188]
ASSIGNED CLASS: condition not met
//
QUERY SEQUENCE: KTLTGKTITLEVESSDT [RPS31]
ASSIGNED CLASS: condition not met
//
QUERY SEQUENCE: MIIFLKNYDATDKPFSS [CSI1]
ASSIGNED CLASS: condition not met
//
QUERY SEQUENCE: ISLRNNMFELAQQLVGV [SMC4]
ASSIGNED CLASS: condition not met
//
QUERY SEQUENCE: ADNDGPRINNISAEDRA [SNF2]
ASSIGNED CLASS: condition not met
